System: MDA-MB-231 breast
testMethodNotes: NCI tumour cell line growth inhibition, 48 h
measurementKind: TGI

Solved entries:
CC#CS(=O)(=O)c1ccccc1 | 22.8 µM
C=C(C)CC1=C(OCC)C(OC)(OCC)C1=O (stereo unspecified) | > 100 µM
N#CC(c1ccccc1)N1CCCN(C(C#N)c2ccccc2)C1c1ccccc1O (stereo unspecified) | > 100 µM

# input Reported TGI, molecule CC(=O)Nc1ccc(C(=O)NN2C(=O)C(Cl)C2c2cc(Br)ccc2O)cc1 (stereo unspecified) : ____
# output > 100 µM

# input // next record Cc1ccc2c(c1)C(=O)C(Cc1ccccc1C(=O)O)C2 (stereo unspecified)
# output > 100 µM

# input Now consider O=C(NC1CCC(=O)N1C(=O)OCc1ccccc1)OCc1ccccc1 (stereo unspecified) .
# output > 100 µM

# input Lookup Cc1ccc(S(=O)(=O)/N=c2\ssc(Nc3ccccc3)c2Cl)cc1
# output 26 µM

# input Now give it for Nc1ncnc2c1ncn2C1C=CC(CP(=O)(O)O)C1 (stereo unspecified) too.
# output > 100 µM

# input Can you handle NCCNc1nc(N2CCCC2)c2nc(Cl)c(NCc3ccccc3)nc2n1 next?
# output 2.87 µM

# input Please answer likewise for COC(=O)[C@@H]1C[C@H]([Se]c2ccccc2)CN1S(=O)(=O)c1ccc(C)cc1
# output > 100 µM

# input Likewise for Cn1cccc1-c1cc(-c2cccs2)[nH]c(=O)c1C#N ?
# output > 100 µM

====

Test system: KM20L2 colon
testMethodNotes: NCI tumour cell line growth inhibition, 48 h
measurementKind: TGI

Reference set (2 entries):
O=C1CCCC2=C(N1)C(=O)C=CC2=O | > 100 µM
COC(=O)C(C(=O)C(=O)Nc1ccccc1C(C)=O)c1nc2ccc(Cl)cc2[nH]c1=O (stereo not drawn) | > 100 µM

// next entry
# input Record request: TGI value, item O=C(O)C(Cc1c[nH]c2ccccc12)N=Cc1nc(-c2ccccc2)oc1O (stereo not drawn)
# output > 100 µM

====

Tested on: T-47D breast
testMethodNotes: NCI tumour cell line growth inhibition, 48 h
Where a SMILES comes first, the peptide text is derived from it.
measurementKind: TGI

O=C(O)C(CSC(c1ccccc1)(c1ccccc1)c1ccccc1)N=Cc1cccs1 (centres undefined) | > 100 µM
O=C1N=C(c2ccccc2)OC1C(=O)c1ccccc1 (centres undefined) | > 100 µM
COc1ccc(/C=C(\C#N)c2nc(N)nc(N3N=C(C)CC3(C)C)n2)c(O)c1 | 34.5 µM
CC(C)CC(NC(=O)C(CC(C)C)NC(=O)C(Cc1cnc[nH]1)NC(=O)C(C)NC(=O)C(NC(=O)C(C)NC(=O)C(Cc1c[nH]c2ccccc12)NC(=O)C(CCC(=O)O)NC(=O)C(N)Cc1ccccc1)C(C)C)C(N)=O (centres undefined) (H-FEWAVAHLL-NH2; configuration not given here) | > 12.5 µM
Cn1c(=O)[nH]c2[nH]c3ccccc3c2c1=O | > 100 µM
O=C(Nc1nccs1)c1cc2c(cc1Cl)Sc1nccn1S2(=O)=O | 64.5 µM

# input Tell me reported TGI for CCCCCCCC/C=C/CCCCCCCC1=NC(C)(C)CN1C(C)C , tested with T-47D breast.
# output 3.27 µM

# input Could you do the same for Cc1cn(C2CC(O)C(Cn3cc(Cn4ncc(=O)[nH]c4=O)nn3)O2)c(=O)[nH]c1=O (centres undefined) , please?
# output > 100 µM

# input Next compound up: COC(=O)C1C(O)CCC2CN3CCc4c([nH]c5cccc(OC)c45)C3CC21 (centres undefined)
# output > 100 µM

# input Try this compound too: COc1ccc(C(=O)N2CCc3c([nH]c4ccccc34)C2C(=O)O)o1 (centres undefined)
# output > 10 µM

# input Try this compound too: OC(c1cccnc1)C(F)(F)c1nc2ccccc2o1 (centres undefined)
# output > 100 µM

# input Do the same for O=c1c2cc([N+](=O)[O-])ccc2n(Cc2ccccc2)n1Cc1ccccc1 please
# output 24.7 µM

# input Try this compound next: C#CCN=C(N/N=C/c1ccc([N+](=O)[O-])o1)NS(=O)(=O)c1cc(C)c(Cl)cc1SCC(N)=O
# output 34.9 µM

# input Now the same for CC1=C2C(=O)OCC23C=COC3(C)O1 (centres undefined)
# output > 100 µM

# input Repeat with Nc1nc(N)c2c(n1)NC(c1ccccc1)CC(/C=C/c1ccc(Cl)cc1)=N2 (centres undefined)
# output 30.8 µM
